biological target: β-secretase II (BACE2) (Homo sapiens, UniProt Q9Y5Z0)
Threshold 500 nM: IC50 strictly smaller gives true (1), otherwise false (0).

Some solved cases for reference:
IC50 under 500 nM? Item: COc1ncc(C(=O)N(C)c2ccncc2)c2c1C[C@]1(c3ccc(F)cc3F)N=C(N)SC[C@@H]1C2 true (1)

IC50 under 500 nM? Item: COc1ncc(CNC(=O)c2cc(C)no2)c2c1C[C@]1(c3ccc(F)cc3F)N=C(N)SC[C@@H]1C2 [Compound 32a] true (1)

IC50 under 500 nM? Item: COc1ncc(CNC(=O)c2cnc(C(F)(F)F)nc2)c2c1C[C@]1(c3ccc(F)cc3F)N=C(N)SC[C@@H]1C2 true (1)

IC50 under 500 nM? Item: CCOc1ncccc1C(=O)NCc1cnc(OC)c2c1C[C@H]1CSC(N)=N[C@@]1(c1ccc(F)cc1F)C2 true (1)

Continuing:
IC50 under 500 nM? Item: COc1ccccc1C(=O)NCc1cnc(OC)c2c1C[C@H]1CSC(N)=N[C@@]1(c1ccc(F)cc1F)C2 false (0)

* * *

These compounds were tested on β-secretase I (BACE1) (Homo sapiens); IC50 is the recorded read-out.
Unit nM implied. Number only.

Check out these entries, answers already filled in.
Give the measured IC50 of COc1ncc(C(=O)N2Cc3cccnc3C2)c2c1C[C@]1(c3ccc(F)cc3F)N=C(N)SC[C@@H]1C2 [Compound 8] . 1000

Give the measured IC50 of COc1ncc(C(=O)N2CCC(C#N)CC2)c2c1C[C@]1(c3ccc(F)cc3F)N=C(N)SC[C@@H]1C2 [Compound 22] . 34.7

Give the measured IC50 of COc1ncc(CNC(=O)c2cnoc2C(C)C)c2c1C[C@]1(c3ccc(F)cc3F)N=C(N)SC[C@@H]1C2 [Compound 42] . 74.1

Give the measured IC50 of COc1cc(C(=O)NCc2cnc(OC)c3c2C[C@H]2CSC(N)=N[C@@]2(c2ccc(F)cc2F)C3)c(OC)nn1 [Compound 41] . 79.4

Give the measured IC50 of COc1ncc(CNC(=O)c2cccnc2)c2c1C[C@]1(c3ccc(F)cc3F)N=C(N)SC[C@@H]1C2 [Compound 45] . 8.51

Continuing:
Give the measured IC50 of COc1ncc(C(=O)N2CCC(C#N)C2)c2c1C[C@]1(c3ccc(F)cc3F)N=C(N)SC[C@@H]1C2 (stereo partly shown) [Compound 6] . 56.2

Give the measured IC50 of COc1ncc(C(=O)N2CCCCC2)c2c1C[C@]1(c3ccc(F)cc3F)N=C(N)SC[C@@H]1C2 [Compound 20] . 50.1

Give the measured IC50 of COCC1CCN(C(=O)c2cnc(OC)c3c2C[C@H]2CSC(N)=N[C@@]2(c2ccc(F)cc2F)C3)CC1 [Compound 11] . 155

Give the measured IC50 of COc1ncc(C(=O)Nc2ccncc2)c2c1C[C@]1(c3ccc(F)cc3F)N=C(N)SC[C@@H]1C2 [Compound 16] . 53.7

Give the measured IC50 of COc1cc(OC)nc(C(=O)NCc2cnc(OC)c3c2C[C@H]2CSC(N)=N[C@@]2(c2ccc(F)cc2F)C3)n1 [Compound 49] . 34.7

Give the measured IC50 of COc1ncccc1C(=O)NCc1cnc(OC)c2c1C[C@H]1CSC(N)=N[C@@]1(c1ccc(F)cc1F)C2 [Compound 47] . 25.7

Give the measured IC50 of COc1ncc(CNC(=O)c2cc(C)no2)c2c1C[C@]1(c3ccc(F)cc3F)N=C(N)SC[C@@H]1C2 [Compound 32a] . 63.1

Give the measured IC50 of COc1cccc(N2CCN(C(=O)c3cnc(OC)c4c3C[C@H]3CSC(N)=N[C@@]3(c3ccc(F)cc3F)C4)CC2)c1 [Compound 24] . 61.7

* * *

tested on: Abeta 1-42 produced and secreted by human neuroblastoma SKNBE2 cells expressing hAPP695; test: Cellular αLisa assay in SKNBE2 cells, Abeta 1-42; format: cell-based; conditions: Homo sapiens, SKNBE2, 18 h, 18 hours incubation, read-out: Cellular αLisa assay in SKNBE2 cells Abeta 42 pIC50 (converted)
Listed here are compounds together with their documented IC50.
Unit nM implied. Number only.

Check out these entries, answers already filled in.
State its IC50 on Abeta 1-42 produced and secreted by human neuroblastoma SKNBE2 cells expressing hAPP695: COc1ncc(C(=O)NC2CC2)c2c1C[C@]1(c3ccc(F)cc3F)N=C(N)SC[C@@H]1C2 [Compound 1] 9.55

State its IC50 on Abeta 1-42 produced and secreted by human neuroblastoma SKNBE2 cells expressing hAPP695: COc1ncc(CNC(=O)c2nccnc2Cl)c2c1C[C@]1(c3ccc(F)cc3F)N=C(N)SC[C@@H]1C2 16.6

State its IC50 on Abeta 1-42 produced and secreted by human neuroblastoma SKNBE2 cells expressing hAPP695: COc1ncc(C(=O)N2CCC(C#N)CC2)c2c1C[C@]1(c3ccc(F)cc3F)N=C(N)SC[C@@H]1C2 85.1

Then there is this compound:
State its IC50 on Abeta 1-42 produced and secreted by human neuroblastoma SKNBE2 cells expressing hAPP695: COc1ncc(CNC(=O)C2CC2)c2c1C[C@]1(c3ccc(F)cc3F)N=C(N)SC[C@@H]1C2 33.1

* * *

biological target: recombinant BACE1 protein (Homo sapiens, UniProt P56817); construct: recombinant BACE1 protein in a final concentration of 0.04 μg/ml; test: BACE1 biochemical FRET based assay; details: 450 min at room temperature, pH 5.0, read-out: Biochemical FRET based assay pIC50 (converted)
Sequence (P56817 46-501): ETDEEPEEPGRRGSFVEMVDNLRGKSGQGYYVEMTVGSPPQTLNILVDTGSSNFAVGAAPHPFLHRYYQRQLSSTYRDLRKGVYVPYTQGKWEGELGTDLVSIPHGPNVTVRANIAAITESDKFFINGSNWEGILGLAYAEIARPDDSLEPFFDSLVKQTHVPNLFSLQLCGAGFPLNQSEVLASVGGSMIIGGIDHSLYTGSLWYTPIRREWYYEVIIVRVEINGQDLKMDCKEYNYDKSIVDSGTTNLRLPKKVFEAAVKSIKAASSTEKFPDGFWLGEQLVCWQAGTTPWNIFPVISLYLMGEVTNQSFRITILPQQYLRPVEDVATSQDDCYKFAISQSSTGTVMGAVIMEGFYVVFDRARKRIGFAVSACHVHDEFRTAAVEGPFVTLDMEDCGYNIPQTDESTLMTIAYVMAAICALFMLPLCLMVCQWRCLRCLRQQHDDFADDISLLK
Listed here are compounds together with their documented IC50.
Unit nM implied. Number only.

Give the measured IC50 of COc1ncc(CNC(=O)c2ccncc2)c2c1C[C@]1(c3ccc(F)cc3F)N=C(N)SC[C@@H]1C2 [Compound 30a] . 66.1

Give the measured IC50 of COc1ncc(C(=O)N2CCC(C#N)CC2)c2c1C[C@]1(c3ccc(F)cc3F)N=C(N)SC[C@@H]1C2 . 129

Continuing:
Give the measured IC50 of COc1ncc(C(=O)Nc2cccnc2)c2c1C[C@]1(c3ccc(F)cc3F)N=C(N)SC[C@@H]1C2 . 75.9

Give the measured IC50 of COc1ncc(C(=O)N2CCC(c3ccncc3)C2)c2c1C[C@]1(c3ccc(F)cc3F)N=C(N)SC[C@@H]1C2 (stereo partly shown) . 20.4

Give the measured IC50 of COc1ncc(C(=O)N2CCOCC2)c2c1CC1(c3ccc(F)cc3F)N=C(N)SCC1C2 (stereo not shown) . 240

Give the measured IC50 of COc1ncc(CNC(=O)c2ccncc2)c2c1C[C@]1(c3ccc(F)cc3F)N=C(N)SC[C@@H]1C2 [Compound 30] . 29.5

Give the measured IC50 of COc1ncc(CNC(=O)C2CC2)c2c1C[C@]1(c3ccc(F)cc3F)N=C(N)SC[C@@H]1C2 [Compound 31a] . 112

* * *

biological target: β-secretase I (BACE1) (Homo sapiens, UniProt P56817)
Sequence (P56817 46-501): as above
pIC50: −log10 of the molar value.
Quick rule: pIC50 of at least 7 means Condition met, below that means Condition not met.

Could you tell me if the measured pIC50 of COc1cccc(C(=O)NCc2cnc(OC)c3c2C[C@H]2CSC(N)=N[C@@]2(c2ccc(F)cc2F)C3)n1 reaches 7 or more? Condition not met

Could you tell me if the measured pIC50 of COc1ncc(CNC(=O)c2cnc(C(F)(F)F)nc2)c2c1C[C@]1(c3ccc(F)cc3F)N=C(N)SC[C@@H]1C2 reaches 7 or more? Condition met

Then there is this compound:
Could you tell me if the measured pIC50 of COc1ncc(CNC(=O)c2ccncc2)c2c1C[C@]1(c3ccc(F)cc3F)N=C(N)SC[C@@H]1C2 [Compound 30a] reaches 7 or more? Condition met

* * *

Listed here are molecules together with their documented log10(IC50).
Biological target: recombinant BACE2 protein (Homo sapiens)
Construct: recombinant BACE2 protein in a final concentration of 0.4 μg/ml
Sequence (Q9Y5Z0 63-518): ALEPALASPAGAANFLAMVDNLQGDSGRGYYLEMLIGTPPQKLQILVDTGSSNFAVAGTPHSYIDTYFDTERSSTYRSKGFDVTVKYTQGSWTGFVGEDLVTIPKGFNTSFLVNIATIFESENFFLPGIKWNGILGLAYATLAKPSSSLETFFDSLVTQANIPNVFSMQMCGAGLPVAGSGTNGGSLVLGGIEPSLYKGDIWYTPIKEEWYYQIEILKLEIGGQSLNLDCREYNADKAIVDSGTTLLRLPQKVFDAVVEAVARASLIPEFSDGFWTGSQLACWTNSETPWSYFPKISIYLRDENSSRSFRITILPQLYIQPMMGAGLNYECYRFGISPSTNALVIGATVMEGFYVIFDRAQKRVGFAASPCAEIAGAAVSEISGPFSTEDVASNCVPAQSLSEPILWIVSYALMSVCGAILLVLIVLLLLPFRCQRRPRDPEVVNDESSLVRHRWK
Experiment: BACE2 biochemical FRET based assay
Conditions: 450 min at room temperature, pH 5.0, read-out: Biochemical FRET based assay pIC50 (converted)
Hey, these are logged values: log10 of IC50, µM being the unit before logging.

State its log10(IC50) on recombinant BACE2 protein (Homo sapiens): COc1ncc(CNC(=O)c2ccncc2)c2c1C[C@]1(c3ccc(F)cc3F)N=C(N)SC[C@@H]1C2 [Compound 30a] -0.16

State its log10(IC50) on recombinant BACE2 protein (Homo sapiens): COc1ncc(C(=O)N2CCC(c3ccncc3)C2)c2c1C[C@]1(c3ccc(F)cc3F)N=C(N)SC[C@@H]1C2 (stereo partly shown) -0.01

State its log10(IC50) on recombinant BACE2 protein (Homo sapiens): COc1ncc(C(=O)NC2CC2)c2c1C[C@]1(c3ccc(F)cc3F)N=C(N)SC[C@@H]1C2 -0.78

State its log10(IC50) on recombinant BACE2 protein (Homo sapiens): COc1ncc(C(=O)N2CCOCC2)c2c1C[C@]1(c3ccc(F)cc3F)N=C(N)SC[C@@H]1C2 0.18

State its log10(IC50) on recombinant BACE2 protein (Homo sapiens): COc1ncc(CNC(=O)c2cc(C)no2)c2c1C[C@]1(c3ccc(F)cc3F)N=C(N)SC[C@@H]1C2 [Compound 32] -0.51

State its log10(IC50) on recombinant BACE2 protein (Homo sapiens): COc1ncc(CNC(=O)c2ccncc2)c2c1C[C@]1(c3ccc(F)cc3F)N=C(N)SC[C@@H]1C2 [Compound 30] -0.45

State its log10(IC50) on recombinant BACE2 protein (Homo sapiens): COc1ncc(CNC(=O)c2nccnc2Cl)c2c1C[C@]1(c3ccc(F)cc3F)N=C(N)SC[C@@H]1C2 -0.70

State its log10(IC50) on recombinant BACE2 protein (Homo sapiens): COc1ncc(C(=O)Nc2cccnc2)c2c1C[C@]1(c3ccc(F)cc3F)N=C(N)SC[C@@H]1C2 -0.55

State its log10(IC50) on recombinant BACE2 protein (Homo sapiens): COc1ncc(CNC(=O)C2CC2)c2c1C[C@]1(c3ccc(F)cc3F)N=C(N)SC[C@@H]1C2 [Compound 31a] -0.90

State its log10(IC50) on recombinant BACE2 protein (Homo sapiens): COc1ncc(CNC(=O)c2cc(C)no2)c2c1C[C@]1(c3ccc(F)cc3F)N=C(N)SC[C@@H]1C2 [Compound 32a] -0.23

Continuing:
State its log10(IC50) on recombinant BACE2 protein (Homo sapiens): COc1ncc(CNC(=O)C2CC2)c2c1C[C@]1(c3ccc(F)cc3F)N=C(N)SC[C@@H]1C2 [Compound 31] -0.98

State its log10(IC50) on recombinant BACE2 protein (Homo sapiens): COc1ncc(C(=O)N2CCOCC2)c2c1CC1(c3ccc(F)cc3F)N=C(N)SCC1C2 (stereo not shown) 0.16

State its log10(IC50) on recombinant BACE2 protein (Homo sapiens): COc1ncc(C(=O)N2CCC(C#N)CC2)c2c1C[C@]1(c3ccc(F)cc3F)N=C(N)SC[C@@H]1C2 0.04
